Origin of values: ChEMBL document CHEMBL4152245

assayedTarget: Bromodomain-containing protein 4 (Homo sapiens, UniProt O60885)
assay: Inhibition of His-tagged BRD4 bromodomain-1 (unknown origin) expressed in Escherichia coli BL21(DE3) at 5 uM using SGRGK(Ac)-GG-K(Ac)-GLG-K(Ac)-GGA-K(Ac)-RHRKVGG-K-Biotin as substrate preincubated for 15 mins followed by substrate addition measured after 10 mins by Alphascreen assay relative to control
Active and inactive are the calls of the source. The calls are words filed in the database; no cut-off is given here.
quantityMeasured: inhibition

Record excerpt, results attached:
>>> testvalue("CCN1C(=O)c2cccc3c(S(=O)(=O)NCCC(=O)OC)ccc1c23")
"29%"
>>> testvalue("CCN1C(=O)c2cccc3c(S(=O)(=O)N4CCC[C@@H]4C(=O)Nc4ccccc4)ccc1c23")
"87%"
>>> testvalue("CCN1C(=O)c2cccc3c(S(=O)(=O)N4CC[C@H](N)C4)ccc1c23")
"inactive"
>>> testvalue("O=C1c2cccc3c(S(=O)(=O)N4CCCC4)ccc(c23)N1CCO")
"inactive"
>>> testvalue("CCN1C(=O)c2cccc3c(S(=O)(=O)N4CCC[C@@H]4C(=O)Nc4ccc(Cl)cc4)ccc1c23")
"42%"

Here are 3 compounds. What values of inhibition were reported for them?
1. CCN1C(=O)c2cccc3c(S(=O)(=O)N4CCC(CN)CC4)ccc1c23
2. CCN1C(=O)c2cccc3c(S(=O)(=O)N4CCC[C@@H]4C(=O)OC)ccc1c23
3. CCN1C(=O)c2cccc3c(S(=O)(=O)N4CCCC4)ccc1c23

A)
1. 23%
2. 27%
3. 59%
